// provenance: patent US20210388087A1

fold change of affinity by entry:
- targetOfAssay: T1, Human CD3eg linker (human)
- T1 construct: Single chain: epsilon and gamma subunits of human CD3 joined by a 29-mer linker, Flag-tag at the C-terminus; also called recombinant human CD3
- T1 chain: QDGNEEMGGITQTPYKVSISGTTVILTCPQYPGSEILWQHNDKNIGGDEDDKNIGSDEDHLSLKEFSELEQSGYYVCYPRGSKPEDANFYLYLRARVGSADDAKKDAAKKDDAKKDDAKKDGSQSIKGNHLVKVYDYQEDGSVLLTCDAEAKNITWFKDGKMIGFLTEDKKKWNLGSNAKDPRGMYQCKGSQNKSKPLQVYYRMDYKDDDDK
- protocolNotes: Biacore SPR, vs template H183/L072
All answers are understood in fold, so give the number only.

Exercise: Return value of fold change of affinity for input H183/L072 VH F100gM (antibody, name in Kabat numbering, V domains shown) VH: QVQLVESGGGLVQPGRSLRLSCAASGFTFSNAWMHWVRQAPGKGLEWVAQIKDKGNAYAAYYAPSVKGRFTISRDDSKNSIYLQMNSLKTEDTAVYYCHYVHYASASTVLPAMGVDAWGQGTTVTVSS VL: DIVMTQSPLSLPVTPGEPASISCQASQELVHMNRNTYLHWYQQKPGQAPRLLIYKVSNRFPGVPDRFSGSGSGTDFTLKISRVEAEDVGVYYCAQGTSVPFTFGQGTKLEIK , no commentary.
Solution: 1.4

Exercise: Specify measured fold change of affinity for H183/L072 VH A54K (antibody, name in Kabat numbering, V domains shown) VH: QVQLVESGGGLVQPGRSLRLSCAASGFTFSNAWMHWVRQAPGKGLEWVAQIKDKGNKYAAYYAPSVKGRFTISRDDSKNSIYLQMNSLKTEDTAVYYCHYVHYASASTVLPAFGVDAWGQGTTVTVSS VL: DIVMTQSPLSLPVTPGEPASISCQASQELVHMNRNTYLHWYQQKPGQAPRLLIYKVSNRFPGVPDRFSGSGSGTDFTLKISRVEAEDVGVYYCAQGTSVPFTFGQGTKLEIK .
Solution: 1.1

Exercise: Specify measured fold change of affinity for H183/L072 VH D52aT (antibody, name in Kabat numbering, V domains shown) VH: QVQLVESGGGLVQPGRSLRLSCAASGFTFSNAWMHWVRQAPGKGLEWVAQIKTKGNAYAAYYAPSVKGRFTISRDDSKNSIYLQMNSLKTEDTAVYYCHYVHYASASTVLPAFGVDAWGQGTTVTVSS VL: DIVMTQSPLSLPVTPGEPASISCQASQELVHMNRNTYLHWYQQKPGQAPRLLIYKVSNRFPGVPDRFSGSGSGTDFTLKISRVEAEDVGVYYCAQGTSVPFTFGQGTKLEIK .
Solution: 0

Exercise: Supply fold change of affinity value. Item: H183/L072 VH G52cW (antibody, name in Kabat numbering, V domains shown) VH: QVQLVESGGGLVQPGRSLRLSCAASGFTFSNAWMHWVRQAPGKGLEWVAQIKDKWNAYAAYYAPSVKGRFTISRDDSKNSIYLQMNSLKTEDTAVYYCHYVHYASASTVLPAFGVDAWGQGTTVTVSS VL: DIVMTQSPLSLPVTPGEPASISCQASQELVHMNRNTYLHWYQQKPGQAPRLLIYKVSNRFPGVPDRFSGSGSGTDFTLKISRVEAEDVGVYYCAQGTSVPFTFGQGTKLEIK
Solution: 1.5

Exercise: Tell me measured fold change of affinity for H183/L072 VH K52H (antibody, name in Kabat numbering, V domains shown) VH: QVQLVESGGGLVQPGRSLRLSCAASGFTFSNAWMHWVRQAPGKGLEWVAQIHDKGNAYAAYYAPSVKGRFTISRDDSKNSIYLQMNSLKTEDTAVYYCHYVHYASASTVLPAFGVDAWGQGTTVTVSS VL: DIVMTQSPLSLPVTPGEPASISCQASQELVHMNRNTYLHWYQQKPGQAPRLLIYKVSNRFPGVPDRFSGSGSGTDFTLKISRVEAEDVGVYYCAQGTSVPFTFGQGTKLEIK please.
Solution: 0
